target system: HLA-B*39:01
test: IEDB peptide-MHC binding, purified MHC/competitive/fluorescence; filed as Kd, often an IC50 or EC50 that approximates it; bounds were set here for any values at or beyond the usual limits of such assays
condition details: source organism: Mus musculus
quantity kind: Kd

Need Kd, item VLWKSYPLV
≥ 20 µM

###

target system: HLA-A*03:01
test: IEDB peptide-MHC binding, purified MHC/competitive/fluorescence; filed as Kd, often an IC50 or EC50 that approximates it; bounds were set here for any values at or beyond the usual limits of such assays
condition details: source organism: Camelpox virus CMS
pKd: −log10 of the molar value.
quantity kind: pKd

Give the measured pKd of WVIDTLNGI .
≤ 4.70

###

target system: HLA-B*18:01
test: IEDB peptide-MHC binding, purified MHC/direct/fluorescence; filed as Kd, often an IC50 or EC50 that approximates it; bounds were set here for any values at or beyond the usual limits of such assays
condition details: source organism: Camelpox virus CMS
pKd: −log10 of the molar value.
quantity kind: pKd

Which pKd is reported with HLA-B*18:01 for this entry: SSDDIPPRW ?
≤ 4.70

###

target system: HLA-B*54:01
test: IEDB peptide-MHC binding, purified MHC/competitive/radioactivity; filed as Kd, often an IC50 or EC50 that approximates it; bounds were set here for any values at or beyond the usual limits of such assays
condition details: source organism: Triticum aestivum
quantity kind: Kd (µM)
One number for each entry, in µM.

Look at this sequence and give its reported Kd. YPSGQGSF
13.3

###

target system: HLA-A*30:02
test: IEDB peptide-MHC binding, purified MHC/competitive/radioactivity; filed as Kd, often an IC50 or EC50 that approximates it; bounds were set here for any values at or beyond the usual limits of such assays
condition details: source organism: SARS coronavirus Tor2
pKd: −log10 of the molar value.
Use 6 as the dividing line for pKd, with the line itself on the yes side and lower values as no.

Example entries begin here.
ASEFSSLPSY    yes
FWITAIYVF    yes
GTDSGFAAY    yes
AWEILKFLI    no
ESVKTQFNY    yes

Next up:
Given LTALRLCAY , state whether its pKd is at least 6.
yes

###

target system: HLA-B*18:01
test: IEDB peptide-MHC binding, purified MHC/direct/fluorescence; filed as Kd, often an IC50 or EC50 that approximates it; bounds were set here for any values at or beyond the usual limits of such assays
condition details: source organism: Yellow fever virus 17D
quantity kind: Kd
Provide the measurement as a number trailed by its unit.

GET /values?readout=Kd&item= SEQGEFKLL
0.875 µM

###

target system: HLA-A*02:01
test: IEDB peptide-MHC binding, purified MHC/direct/fluorescence; filed as Kd, often an IC50 or EC50 that approximates it; bounds were set here for any values at or beyond the usual limits of such assays
condition details: source organism: Escherichia coli O157:H7
quantity kind: Kd (µM)
Give bare numbers, in µM.

So what's the measured Kd for this one? PILPKLFIL
5.7

###

Exercise: for every item that follows, state its recorded pKd.
target system: HLA-B*08:01
test: IEDB peptide-MHC binding, purified MHC/direct/fluorescence; filed as Kd, often an IC50 or EC50 that approximates it; bounds were set here for any values at or beyond the usual limits of such assays
condition details: source organism: Giardia lamblia ATCC 50803
pKd: −log10 of the molar value.

The cases that follow already have their pKd on record.
AIPYFYKGK    ≤ 4.70
AEFWDVFLS    ≤ 4.70
RPALVVDTP    ≤ 4.70
ITASKDLCF    ≤ 4.70
RTRFFCIPK    ≤ 4.70

Provide the reported pKd of each entry below, same order.
1. IRNLVKRYK
2. AAFLDDNAF

1: ≤ 4.70; 2: ≤ 4.70

###

Assignment: determine reported pKd for the given sequences.
target system: HLA-A*02:01
test: IEDB peptide-MHC binding, purified MHC/direct/fluorescence; filed as Kd, often an IC50 or EC50 that approximates it; bounds were set here for any values at or beyond the usual limits of such assays
condition details: source organism: Vibrio cholerae
pKd: −log10 of the molar value.

KEDPGDHIF    ≤ 4.70

Next sequence, pKd to be filled in.
Notebook entry, HLA-A*02:01 assay: pKd of IPISGRITA = ?
≤ 4.70

###

target system: HLA-B*15:01
test: IEDB peptide-MHC binding, purified MHC/competitive/fluorescence; filed as Kd, often an IC50 or EC50 that approximates it; bounds were set here for any values at or beyond the usual limits of such assays
condition details: source organism: Mus musculus
pKd: −log10 of the molar value.
quantity kind: pKd

API: value(readout= pKd, system= HLA-B*15:01, query= VLWKSYPLV )
≤ 4.70

###

target system: HLA-B*18:01
test: IEDB peptide-MHC binding, purified MHC/competitive/fluorescence; filed as Kd, often an IC50 or EC50 that approximates it; bounds were set here for any values at or beyond the usual limits of such assays
condition details: source organism: Vibrio parahaemolyticus K5030
quantity kind: Kd

I have this sequence here, AGGWVLWKV , and I need its recorded Kd.
≥ 20 µM

###

target system: HLA-A*29:02
test: IEDB peptide-MHC binding, purified MHC/direct/fluorescence; filed as Kd, often an IC50 or EC50 that approximates it; bounds were set here for any values at or beyond the usual limits of such assays
condition details: source organism: Toxoplasma gondii RH
pKd: −log10 of the molar value.
quantity kind: pKd

Look up pKd for this sequence: THADAHTQL
≤ 4.70

###

target system: HLA-C*05:01
test: IEDB peptide-MHC binding, purified MHC/direct/fluorescence; filed as Kd, often an IC50 or EC50 that approximates it; bounds were set here for any values at or beyond the usual limits of such assays
condition details: source organism: Variola virus
pKd: −log10 of the molar value.
quantity kind: pKd

# lookup: pKd of LPMIIGEPI
≤ 4.70

###

target system: HLA-A*02:03
test: IEDB peptide-MHC binding, purified MHC/direct/fluorescence; filed as Kd, often an IC50 or EC50 that approximates it; bounds were set here for any values at or beyond the usual limits of such assays
condition details: source organism: Reston ebolavirus
pKd: −log10 of the molar value.
quantity kind: pKd

What value of measured pKd is listed for RRELSKEKL ?
≤ 4.70

###

target system: HLA-A*30:02
test: IEDB peptide-MHC binding, purified MHC/competitive/radioactivity; filed as Kd, often an IC50 or EC50 that approximates it; bounds were set here for any values at or beyond the usual limits of such assays
condition details: source organism: Mammarenavirus juninense
quantity kind: Kd (nM)
One number for each entry, in nM.

Give HLA-A*30:02 Kd for KTGEKSRCY
2190

###

target system: HLA-A*68:02
test: IEDB peptide-MHC binding, purified MHC/competitive/radioactivity; filed as Kd, often an IC50 or EC50 that approximates it; bounds were set here for any values at or beyond the usual limits of such assays
condition details: source organism: Dengue virus 4 Philippines/H241/1956
quantity kind: Kd (nM)
One number for each entry, in nM.

I have 2 sequences here; please give me Kd for each one.
1. EIASLPTYL
2. TSAWVMYGT

[7.91, 1.7]

###

target system: HLA-A*31:01
test: IEDB peptide-MHC binding, purified MHC/competitive/radioactivity; filed as Kd, often an IC50 or EC50 that approximates it; bounds were set here for any values at or beyond the usual limits of such assays
condition details: source organism: Hepatitis C virus (isolate 1)
pKd: −log10 of the molar value.
quantity kind: pKd

Can you look up the measured pKd of HPNIEEVAL for me?
≤ 4.11

###

target system: HLA-B*27:05
test: IEDB peptide-MHC binding, purified MHC/direct/fluorescence; filed as Kd, often an IC50 or EC50 that approximates it; bounds were set here for any values at or beyond the usual limits of such assays
condition details: source organism: Influenza A virus (A/chicken/Vietnam/5/2003(H5N1))
pKd: −log10 of the molar value.
quantity kind: pKd

What is its pKd for HLA-B*27:05? Entry: RVDKLTQGR
≤ 4.70

###

target system: HLA-B*40:01
test: IEDB peptide-MHC binding, purified MHC/competitive/fluorescence; filed as Kd, often an IC50 or EC50 that approximates it; bounds were set here for any values at or beyond the usual limits of such assays
condition details: source organism: Escherichia coli O139:H28 str. E24377A
pKd: −log10 of the molar value.
quantity kind: pKd

Look at this sequence and give its reported pKd. GEVRGYLVK
≤ 4.70

###

target system: HLA-A*30:01
test: IEDB peptide-MHC binding, purified MHC/competitive/radioactivity; filed as Kd, often an IC50 or EC50 that approximates it; bounds were set here for any values at or beyond the usual limits of such assays
condition details: source organism: Dengue virus 3 Martinique/1243/1999
quantity kind: Kd (nM)
One number for each entry, in nM.

Return reported Kd; argument: EEFLDYMPSM
2290
